Listed here are molecules together with their documented pIC50.
Biological target: cdk4/D (Homo sapiens, UniProt P11802)
Sequence (P11802 whole entry): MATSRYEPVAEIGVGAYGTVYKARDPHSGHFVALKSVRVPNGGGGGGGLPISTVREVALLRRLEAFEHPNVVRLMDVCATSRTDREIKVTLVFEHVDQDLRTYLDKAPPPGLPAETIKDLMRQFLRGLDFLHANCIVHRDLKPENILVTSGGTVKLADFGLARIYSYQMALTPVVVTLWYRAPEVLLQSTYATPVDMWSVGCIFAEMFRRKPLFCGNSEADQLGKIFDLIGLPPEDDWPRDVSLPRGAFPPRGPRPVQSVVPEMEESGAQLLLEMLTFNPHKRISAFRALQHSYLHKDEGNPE
Sequence (P24385 whole entry, further chain): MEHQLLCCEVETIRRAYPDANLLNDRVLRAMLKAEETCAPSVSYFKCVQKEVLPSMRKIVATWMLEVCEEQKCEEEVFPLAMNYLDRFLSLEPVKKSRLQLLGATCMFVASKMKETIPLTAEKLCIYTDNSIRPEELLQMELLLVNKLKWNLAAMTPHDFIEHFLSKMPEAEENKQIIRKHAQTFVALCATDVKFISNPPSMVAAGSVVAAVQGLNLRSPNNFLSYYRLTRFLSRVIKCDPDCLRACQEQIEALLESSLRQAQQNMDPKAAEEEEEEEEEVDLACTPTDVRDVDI
Test: Cyclin-Dependent Kinase 4 (cdk4) Assay
Type: biochemical
Settings: read-out: cdk4/D IC50
The value called pIC50 is obtained by taking minus log10 of the concentration in mol/L.

Molecule | Endpoint value
CCC(CC)n1c(=O)ccc2cnc(Nc3ccc(O)cc3F)nc21 | 6.24

State, in one line, measured pIC50 of CC(=O)Nc1cc(Nc2ncc3ccc(=O)n(CC4CC4)c3n2)ccc1C
6.68

State, in one line, measured pIC50 of CCC(C)n1c(=O)ccc2cnc(Nc3ccc(N(C)C(C)=O)cc3)nc21 (stereo not shown)
6.92

State, in one line, measured pIC50 of CCC(C)n1c(=O)ccc2cnc(Nc3ccc4[nH]nnc4c3)nc21 (stereo not shown)
6.89

State, in one line, measured pIC50 of Nc1c(Cl)cc(Nc2ncc3ccc(=O)n(C4CCCC4)c3n2)cc1Cl
6.92

State, in one line, measured pIC50 of CCC(CC)n1c(=O)ccc2cnc(Nc3ccc4[nH]c5ccccc5c4c3)nc21
7.55

---

Biological target: cdk4/D (Homo sapiens)
Assay: Cyclin-Dependent Kinase 4 (cdk4) Assay
Type: biochemical
Details: read-out: cdk4/D IC50
Listed here are compounds together with their documented IC50.
Field format: number, assumed nM, no unit text.

Use these answered entries as a reference point.
Compound | Endpoint value
CCC(CC)n1c(=O)ccc2cnc(Nc3ccc(C)c(NS(C)(=O)=O)c3)nc21 | 150
CCC(CC)n1c(=O)ccc2cnc(Nc3ccc(O)c(Cl)c3)nc21 | 280
CCCn1c(=O)ccc2cnc(Nc3ccc(I)c(Cl)c3)nc21 | 370
Cc1cc(C)cc(Nc2ncc3ccc(=O)n(C4CCCC4)c3n2)c1 | 120
CCCn1c(=O)ccc2cnc(Nc3ccc4cn[nH]c4c3)nc21 | 300
CCCn1c(=O)ccc2cnc(Nc3ccc(C)c(F)c3)nc21 | 380

Consider the record given below.
State, in one line, measured IC50 of CCC(CC)n1c(=O)ccc2cnc(Nc3cccc(O)c3)nc21
2200

---

Target: Cdk5/p25 (Homo sapiens)
Test: Cyclin-Dependent Kinase 5 High Throughput Screening (cdk5-HTS) Assay
Format: biochemical
Conditions: high throughput screen
Entries are grouped by IC50 into these classes: zone 1: < 50 nM; zone 2: ≥ 50 nM and < 300 nM; zone 3: ≥ 300 nM

Chemical smiles | Subject of test | Label class
CCCn1c(=O)ccc2cnc(Nc3ccc(O)c(Cl)c3)nc21 | Cdk5/p25 (Homo sapiens) | zone 1
CCCn1c(=O)ccc2cnc(Nc3ccc4c(c3)CCN4)nc21 | Cdk5/p25 (Homo sapiens) | zone 2
CCCn1c(=O)ccc2cnc(Nc3cc(C(F)(F)F)cc(C(F)(F)F)c3)nc21 | Cdk5/p25 (Homo sapiens) | zone 3

Looking at CC(=O)N(C)c1ccc(Nc2ncc3ccc(=O)n(C(C)C)c3n2)cc1 , which class would you pick?
zone 2

Looking at Cn1c(=O)ccc2cnc(Nc3ccccc3)nc21 , which class would you pick?
zone 2

Looking at CC(=O)Nc1cc(Nc2ncc3ccc(=O)n(C4CCCC4)c3n2)ccc1C , which class would you pick?
zone 2

Looking at CC(=O)Nc1cc(Nc2ncc3ccc(=O)n(CC4CC4)c3n2)ccc1C , which class would you pick?
zone 3

Looking at O=c1ccc2cnc(Nc3ccc4[nH]nnc4c3)nc2n1CC1CC1 , which class would you pick?
zone 2
